biological target: Mitogen-activated protein kinase 3 (Homo sapiens, UniProt P27361); assay: Selectivity interaction (Kinase panel (Invitrogen, enzymatic assay)) EUB0000623aCl MAPK3
Sequence (P27361 whole entry): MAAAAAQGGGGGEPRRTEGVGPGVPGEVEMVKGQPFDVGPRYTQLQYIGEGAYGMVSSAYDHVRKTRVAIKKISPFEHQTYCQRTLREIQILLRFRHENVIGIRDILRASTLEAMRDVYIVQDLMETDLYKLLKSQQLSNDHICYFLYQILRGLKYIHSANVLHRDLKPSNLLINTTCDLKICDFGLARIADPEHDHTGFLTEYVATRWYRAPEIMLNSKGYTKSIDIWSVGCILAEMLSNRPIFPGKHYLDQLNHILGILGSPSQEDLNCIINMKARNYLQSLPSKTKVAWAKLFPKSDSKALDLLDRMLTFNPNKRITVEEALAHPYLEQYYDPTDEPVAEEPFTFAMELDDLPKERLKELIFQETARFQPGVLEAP
pIC50: −log10 of the molar value.

structure.smiles | pIC50
CC(C)(C)c1ccc(C(=O)Nc2cn3cc(-n4ccnc4)ccc3n2)cc1 | < 5.00

###

biological target: TATA box-binding protein-associated factor RNA polymerase I subunit A (Homo sapiens, UniProt Q15573); assay: Selectivity interaction (AlphaScreen) EUB0001074a TAF1A
Sequence (Q15573 whole entry): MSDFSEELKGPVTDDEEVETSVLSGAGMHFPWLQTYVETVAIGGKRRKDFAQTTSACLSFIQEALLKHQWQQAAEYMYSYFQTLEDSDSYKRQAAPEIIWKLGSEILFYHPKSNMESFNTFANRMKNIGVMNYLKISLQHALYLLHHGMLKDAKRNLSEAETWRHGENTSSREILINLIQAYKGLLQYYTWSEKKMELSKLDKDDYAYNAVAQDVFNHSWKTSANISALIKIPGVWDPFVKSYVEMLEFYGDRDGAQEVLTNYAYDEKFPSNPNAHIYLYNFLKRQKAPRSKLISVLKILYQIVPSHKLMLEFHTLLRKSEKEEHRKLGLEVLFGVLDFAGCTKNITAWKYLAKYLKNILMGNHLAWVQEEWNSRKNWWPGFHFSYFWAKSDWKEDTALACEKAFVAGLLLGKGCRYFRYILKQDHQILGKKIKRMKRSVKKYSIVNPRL
pIC50: −log10 of the molar value.

structure.smiles | pIC50
CCc1cc2cc(NS(=O)(=O)c3ccc(C#N)cc3)ccc2n(CC)c1=O | < 3.70

###

Molecular target: Tyrosine-protein kinase JAK3 (Homo sapiens)
Sequence (P52333 whole entry): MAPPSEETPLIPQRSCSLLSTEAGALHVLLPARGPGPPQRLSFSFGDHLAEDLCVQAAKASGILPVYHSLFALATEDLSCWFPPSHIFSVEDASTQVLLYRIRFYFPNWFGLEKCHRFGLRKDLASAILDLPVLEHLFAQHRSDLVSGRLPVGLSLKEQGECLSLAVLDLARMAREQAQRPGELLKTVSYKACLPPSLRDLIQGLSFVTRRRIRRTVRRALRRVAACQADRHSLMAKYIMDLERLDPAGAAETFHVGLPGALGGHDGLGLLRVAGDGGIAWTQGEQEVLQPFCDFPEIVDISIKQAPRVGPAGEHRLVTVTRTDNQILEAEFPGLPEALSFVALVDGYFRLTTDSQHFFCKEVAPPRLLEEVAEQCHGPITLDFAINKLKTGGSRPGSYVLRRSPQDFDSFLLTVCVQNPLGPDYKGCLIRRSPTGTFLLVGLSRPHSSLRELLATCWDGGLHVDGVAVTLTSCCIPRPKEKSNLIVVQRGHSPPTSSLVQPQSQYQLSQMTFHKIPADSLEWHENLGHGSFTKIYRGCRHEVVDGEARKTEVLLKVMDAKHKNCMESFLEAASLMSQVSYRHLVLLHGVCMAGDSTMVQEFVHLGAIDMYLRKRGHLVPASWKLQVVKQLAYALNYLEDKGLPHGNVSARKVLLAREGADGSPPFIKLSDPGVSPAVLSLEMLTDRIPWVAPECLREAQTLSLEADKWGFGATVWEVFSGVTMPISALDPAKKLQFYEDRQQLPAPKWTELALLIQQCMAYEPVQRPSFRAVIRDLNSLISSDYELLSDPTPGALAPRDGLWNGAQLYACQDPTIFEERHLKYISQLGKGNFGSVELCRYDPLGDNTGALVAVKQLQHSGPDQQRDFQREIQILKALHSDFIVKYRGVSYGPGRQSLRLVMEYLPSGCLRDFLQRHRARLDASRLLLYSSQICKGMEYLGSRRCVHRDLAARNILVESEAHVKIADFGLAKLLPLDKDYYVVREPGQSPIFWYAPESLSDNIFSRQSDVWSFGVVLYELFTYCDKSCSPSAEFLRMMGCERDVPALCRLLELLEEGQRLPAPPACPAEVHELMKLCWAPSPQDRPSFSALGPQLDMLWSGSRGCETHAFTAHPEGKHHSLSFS
Assay: Selectivity interaction (Kinase panel (33PanQinase(R) Activity Assay)) EUB0000877a JAK3
pIC50: −log10 of the molar value.

structure.smiles | pIC50
CCC(=O)N1CC[C@H](Nc2ncnc3c2CN(c2cnc(OC)c(C(F)(F)F)c2)CC3)C1 | < 5.00
